half-life for assorted compounds
Test: Elimination half life in Sprague-Dawley rat at 10 mg/kg, po by LC-MS analysis
Assay type: ADME, organism-based
Design: dose 10 mg/kg, route oral
Conditions: in vivo, read-out: beta t1/2 (converted)
Give your result in h as a bare value.

The examples below pair each entry with its known result.
compound: CN1C[C@@H](c2ccc(-c3ccc4c(c3)OC[C@H]3[C@H](COP(=O)(O)O)OC(=O)N43)cn2)OC1=O.N=C(N)NCCC[C@H](N)C(=O)O.N=C(N)NCCC[C@H](N)C(=O)O
measuredNumber: 3.88
--
compound: N#Cc1ccc(-c2ccc3c(c2)OC[C@H]2[C@H](COP(=O)([O-])[O-])OC(=O)N32)cn1.[Na+].[Na+]
measuredNumber: 3.17
--
compound: O=C1OC(CO)CN1c1ccc(-c2ccc3c(c2)OC[C@H]2[C@H](CO)OC(=O)N32)cn1 (some centres undefined)
measuredNumber: 2.25

May I ask what half-life has been recorded for "CN1C[C@@H](c2ccc(-c3ccc4c(c3)OC[C@H]3[C@H](COP(=O)([O-])[O-])OC(=O)N43)cn2)OC1=O.[Na+].[Na+]" ?
4.61
